System Tested: RNase-Amadori
Assay Text: Post-Amadori AGE/CML ELISA inhibition assay
Experimental Setup: 20 hours at 37° C.
Measured IC50 by item
The number alone won't do; follow it with the unit.

Observe how each entry below is paired with its result.
INSERT INTO results (compound, result) VALUES
  ('Cc1ncc(CO)c(-c2ncc[nH]2)c1O [BST-4997, reference compound]', '600 µM'),
  ('Cc1ncc(CO)c(CN)c1O [Pyridoxamine, pyridoxamine, reference compound]', '5000 µM');

Now look at this entry.
What IC50 appears in the records for this compound with RNase-Amadori? Cc1ncc(CN2CCN(C)CC2)c(-c2ncc[nH]2)c1O
100 µM

----------
Measured pKd by item
Assay Text: Redox metal ion binding affinity, visible spectroscopic titration (Cu2+)
Experimental Setup: visible spectroscopy, physiological pH; read-out: Cu^2+ Kd
Scale: negative log10 of molar concentration, which is what pKd denotes.

INSERT INTO results (compound, reported_property, numeric_readout) VALUES
  ('Cc1ncc(CN2CCN(C)CC2)c(-c2ncc[nH]2)c1O', 'pKd', 6.89);

What value of pKd has been recorded for this entry: Cc1ncc(CO)c(-c2ncc[nH]2)c1O [BST-4997, reference compound]
5.95
